Hello, the source for this data is paper PMC4382154, in case you need it.

- protocol-description: in vitro
- Format: cell-based
- condition-label: human

{"columns": ["molecule", "CC50 at 72 h [µM]"],
 "data": [
  ["Cn1cc(-c2cccc3cc(C(=O)NC(=N)N)ccc23)cn1 [BIT-225, reference compound]", 52.9]
]}

###

Entries and their measured CC50 at 72 h follow.
- protocol-description: Cell toxicity in HIV-1 infected CEM-GXR cultures (forward/side scatter)
- Assay type: cell-based
- condition-label: human, HIV-1NL4-3-infected CEM-GXR cells (CD4+ T-lymphocyte line), Day 4

{"columns": ["compound", "value-unit", "qualifier-operator", "CC50 at 72 h"],
 "data": [
  ["COc1cc2ccc3c(OC)c(O)ccc3c2c(OC)c1O [PA, 1,5,7-trimethoxyphenanthrene-2,6-diol]", "µM", "<", 30],
  ["O=C(O[C@@H]1Cc2c(O)cc(O)cc2O[C@@H]1c1ccc(O)c(O)c1)c1cc(O)c(O)c(O)c1 [ECG, epicatechin gallate]", "µM", ">", 100],
  ["COc1cc2c(cc1O)C[C@H]1c3c(cc(O)c(OC)c3-2)CCN1C [boldine]", "µM", ">", 100],
  ["O=C1OCc2cc3cccc(OC4OC(CO)C(O)C(O)C4O)c3c(O)c21 (centres unmarked) [geshoidin]", "µM", ">", 10],
  ["Oc1cc(O)c2c(c1)OC1(c3ccc(O)c(O)c3)Oc3c4c(c5c(c3C2C1O)OC1(c2ccc(O)c(O)c2)Oc2cc(O)cc(O)c2C5C1O)OC(c1ccc(O)c(O)c1)C(O)C4 (centres unmarked) [ixoratannin A-2]", "µM", "=", 57.5],
  ["Cn1cc(-c2cccc3cc(C(=O)NC(=N)N)ccc23)cn1 [BIT-225, reference compound]", "µM", "=", 10.7],
  ["O=c1oc2c(O)c(O)cc3c(=O)oc4c(O)c(O)cc1c4c23 [EA, ellagic acid]", "µM", "=", 52.3],
  ["CC(=O)c1c(O)cc(OC2OC(O)C(O)C(O)C2O)c(-c2c(C)cc(O)c3c2C(=O)c2cccc(O)c2C3=O)c1O (centres unmarked) [2MA]", "µM", "=", 50.9]
]}
